Let's look at some molecules and their measured melting point.

COc1cc(C(=O)N2CCC(CCN3CCC(Nc4nc5ccccc5n4Cc4ccccn4)CC3)(c3ccc(F)cc3)C2)cc(OC)c1OC (stereo not given): 110 to 119 °C

Determine from records and report melting point for `CC[C@@H](C)[C@H](NC(=O)NCCNC(=O)OC(C)(C)C)C(=O)OC`
86 to 89 °C

Determine from records and report melting point for `CS(=O)(=O)Oc1ccc([N+](=O)[O-])c(OCCBr)c1`
96 to 98 °C

Determine from records and report melting point for Nc1ccn(C2OC(CO)C(O)C2O)c(=O)c1F (stereo not given)
234 to 236 °C

Determine from records and report melting point for `COc1ccc2c(c1)[C@H](CO)OC2=O`
137 to 140 °C

Determine from records and report melting point for `CC(=N)NS(=O)(=O)C=Cc1ccccc1`
130 to 134 °C

Determine from records and report melting point for `COc1ccc(CNC(=O)c2c(NC(=O)c3ccc(C(=O)O)cc3)sc3c2CCCC3)cc1OC`
> 270 °C

Determine from records and report melting point for `CCCCCCCOCCCCCCNCc1c(CO)ccc(O)c1CO`
72 to 74 °C

Determine from records and report melting point for `CC(C)(C)N1CC(=O)Nc2ccc(Br)cc2C1=O`
205 to 208 °C

Determine from records and report melting point for `O=c1[nH]c2ccsc2[nH]c1=O`
> 340 °C

---

Let's look at some molecules and their measured melting point.

Worked examples follow.
O=c1c2ccc(Cl)cc2[nH]c2c(=O)n(-c3ccc(F)cc3)nc(O)c12: 390 to 392 °C
CCC(=Cc1cccc([N+](=O)[O-])c1)[N+](=O)[O-]: 68 to 72 °C
Cc1nc(C)n(-c2cc(C)c3[nH]c(=O)ccc3c2)c1[N+](=O)[O-]: 244 to 247 °C
O=C1NC(=O)c2c1c(-c1ccccc1Cl)cc1c2ccn1CCCO: 225 to 227 °C

Next item in the queue.
Determine from records and report melting point for `O=C(O)c1cn(C2CC2)c2c(F)c(N3CCC[C@H]3CO)c(F)cc2c1=O`
209 to 210 °C

---

Let's look at some compounds and their measured melting point.

Worked examples follow.
COC(=O)C(Cc1ccccc1)Oc1ccc2cc(-c3cnc(Cc4ccccc4)o3)ccc2c1 (centres undefined): 88 to 90 °C
CC(C)C[C@@H](C(=O)N1CCN(C(c2ccc(F)cc2)c2ccc(F)cc2)CC1)N(C)C1CCCCC1: 171 to 182 °C
C=CC(O)c1ccc2[nH]c(CCCC)nc(=O)c2c1 (centres undefined): 141 °C
COc1ccc(-c2cncc(C#N)c2Oc2ccc3[nH]ccc3c2)cc1OC: 192 to 194 °C
CC(C)COC(=O)Nc1cccc(-c2ccnc3c(-c4cccs4)cnn23)c1: 140 to 141 °C

Determine from records and report melting point for `NC(=O)c1ccccc1Sc1ccccc1[N+](=O)[O-]`
166 to 167 °C

Determine from records and report melting point for `O=C(O)C=Cc1cc(Cl)ccc1C(=O)O`
200 to 202 °C

Determine from records and report melting point for O=C(Nc1ccc2c(c1)CCN(C(=O)Nc1ccc(OCC(O)CO)cc1Cl)C2)Nc1ccccc1F (centres undefined)
164 to 167 °C

Determine from records and report melting point for CC(=Cc1ccc(C(F)(F)F)cc1)C1OCC(S(=O)Cc2ccc(Cl)cc2)CO1 (centres undefined)
192 to 194 °C

Determine from records and report melting point for `CC(C)CC(=O)Nc1nc(-c2ccccc2)c(-c2ccc(=O)n(C(C)C)n2)s1`
198 to 199 °C

Determine from records and report melting point for COC(=O)CCS(=O)c1cc(C(C)(C)C)c(O)c(C(C)(C)C)c1 (centres undefined)
106 to 108 °C

Determine from records and report melting point for `C=C(c1cncn1Cc1ccccc1)C(c1cc(C)cc(C)c1)c1cc(C)cc(C)c1`
170 to 176 °C

Determine from records and report melting point for `Nc1n[nH]c2c(F)cccc12`
170 °C

Determine from records and report melting point for `CC(/C=C/c1c(C)sc(C)c1C)=C(F)\C=C\C(C)=C\CO`
106 to 108 °C

Determine from records and report melting point for `COc1ccc(-c2c(C)c3cc(O)ccc3n2Cc2ccc(OCCN3CCCCC3)cc2)c(OC)c1`
85 to 92 °C

---

measure.name: melting point

Worked examples follow.
O=C1CCC(c2ccc(-n3ccnc3)nc2)=NN1: 276 to 278 °C
Cc1cc(NCc2ccc(-c3ccccc3C#N)cc2)n2nccc2n1: 221 to 223 °C
COc1cc2c(Cl)c(C#N)cnc2cc1OCc1ccccc1: 282 to 284 °C
CCCn1ncnc1COc1nn2c(-c3ccc(F)cc3)nncc2c1C(C)(C)C: 154 °C
COCc1csc(C(=O)C2C(=O)N(C(N)=O)c3ccc(Cl)cc32)c1 (configuration not stated): 193 to 195 °C

Determine from records and report melting point for `CCCNc1c(CN)cnc2cn[nH]c12`
97 to 100 °C

Determine from records and report melting point for `CC(C)n1nc(OCc2ccc3ccccc3n2)cc1CO`
137 to 138 °C

Determine from records and report melting point for CC1=C(C(=O)OCCOc2ccccc2)C(c2ccccc2OC(F)F)c2c(ccnc2OC(C)C)N1 (configuration not stated)
122 to 124 °C

Determine from records and report melting point for `CN(c1cccc2cc(C3=NCC4(CCN(CC(C)(C)O)CC4)S3)[nH]c12)S(=O)(=O)c1cccs1`
191 °C

Determine from records and report melting point for CC(=O)OCC1OC(n2cc(C(Br)=CI)c(=O)[nH]c2=O)C(OC(C)=O)C1OC(C)=O (configuration not stated)
86 to 88 °C

---

Let's look at some molecules and their measured melting point.

O=[N+]([O-])c1ccc(CNc2ccccn2)cc1: 131 to 132 °C
O=C1C=C(c2c(-c3ccccc3)nn3ccccc23)CCN1: 188 to 189 °C

Determine from records and report melting point for `Cc1oc2cc(C3CC(=O)N(C4CC4)C(=O)C3)ccc2c1C`
180 to 182 °C

Determine from records and report melting point for `CCCCCCCCCCCCCCCCCCOC(=O)CCC(=O)OC1CC(C)(C)N(C)C(C)(C)C1`
38 to 40 °C

Determine from records and report melting point for `COc1ccc(C(=O)c2ccc(Cl)c(Cl)c2)c(Cl)c1Cl`
113 to 140 °C

---

measure.name: melting point

Worked examples follow.
CCOCc1nc2c(N)nc3ccccc3c2n1CCN1C(C)=NOC12CCCC2: 211 to 213 °C
Nc1nc2c(c3c1ncn3Cc1cc(-c3ccc(F)cc3)no1)NCCC2: 227 to 228 °C
CCCn1cc(C(=O)O)c(=O)c2cnc(N3CCNCC3)nc21: 259 to 261 °C
O=C1Nc2ccc(Cl)cc2C1(O)Cc1ccccc1 (configuration not stated): 204 to 205 °C
CCCC1CCCN(C(=O)C2Cc3ccccc3N2c2ccc(=O)n(C)n2)C1 (configuration not stated): 106 to 110 °C
O=C(O)Cc1ccc(Oc2ccc(C(F)(F)F)cn2)c(Cl)c1: 138 to 139 °C
CC(C)C(c1ccccc1O)N1CCOCC1 (configuration not stated): 73 to 77 °C
C/C(=N\OCCOc1ccc(C(=O)O)c(Cl)c1)c1ccc(C(C)(C)C)cc1: 143 to 144 °C
CC(C)Oc1ccc2c(c1)OCC1c3ccccc3OC21 (configuration not stated): 100 to 102 °C
COc1ccc(N2CCN(c3cc(C)c4c(c3C)CC(C)(C)O4)CC2)cc1: 174 to 175 °C

Determine from records and report melting point for `CN1CCN(c2cc(Cl)cc3c2c(=O)n(Cc2ccccc2)c(=O)n3C)CC1`
132 to 136 °C

Determine from records and report melting point for `CC(C)(C)NCCNC(=O)Cn1ncc(-c2ccccc2)c1-c1ccccc1`
115 to 116 °C

Determine from records and report melting point for `C=Cc1cnc(C)c(OC(C)=O)c1CSC(C)=O`
72 to 73 °C

Determine from records and report melting point for `O=Cc1c(-c2ccc(Cl)cc2)sc2ccccc12`
99.7 to 101 °C

Determine from records and report melting point for `C(=C\c1nc(COc2ccc(CCCn3cncn3)cc2)co1)/c1ccccc1`
108 to 109 °C

---

measure.name: melting point

Worked examples follow.
O=C(COC(F)(F)F)Nc1ccccc1: 64 to 66.5 °C
CCOC(=O)c1ccc(N=C(C)c2ccccc2)cc1: 87 °C
CCc1c(-c2ccc(O)cc2)c2cc(C(C)=O)c3ccc(CO)c1n32: 194 to 195 °C
Cc1ccnc(C(=O)c2[nH]c3ccc(Cl)cc3c2CC(=O)NCCN)c1: 166 °C
CC(=O)N[C@H]1CC[C@H](ON2C(=O)c3ccccc3C2=O)CC1: 210 to 213 °C

Determine from records and report melting point for `CCOC(=O)C(=CNc1ccc(F)c(F)c1OCc1ccccc1)C(=O)OCC`
87 °C

Determine from records and report melting point for `Cc1nc(Nc2ccc(Cl)cc2)sc1-c1nc2ccccc2c(=O)n1-c1ccccc1Cl`
237 to 238 °C

Determine from records and report melting point for `S=C1Nc2ccccc2N2CCc3cccc1c32`
185 to 186 °C

Determine from records and report melting point for O=C1c2cccc(NC(=S)Nc3ncccn3)c2C2CCCCN12 (centres undefined)
212 °C

Determine from records and report melting point for Cc1cccc(NC(=O)Nc2cccc3c2C2CC(O)CCN2C3=O)n1 (centres undefined)
240 to 242 °C

Determine from records and report melting point for `CCCC(=O)c1cc(OC)c(O)c([N+](=O)[O-])c1`
92 to 93 °C

Determine from records and report melting point for `CC(C)c1nc(CO)n(Cc2cccnc2)c1Sc1cc(Cl)cc(Cl)c1`
136 to 139 °C

Determine from records and report melting point for `NC(=O)N(O)CC=Cc1ccc(Oc2ccccc2)o1`
126 to 128 °C
